Cited source for all entries: patent US20250019385A1

Measured pIC50 by item
biological target: KRAS (G12C)::SOS1 protein-protein interaction (Homo sapiens (Human), UniProt P01116, C118S/C51S/C80L/G12C); experiment: KRAS::SOS1 AlphaScreen binding assay (KRAS G12C); conditions: GDP
Sequence (P01116 other isoform, or with tags, fused parts or gaps G12C/C51S/C80L/C118S): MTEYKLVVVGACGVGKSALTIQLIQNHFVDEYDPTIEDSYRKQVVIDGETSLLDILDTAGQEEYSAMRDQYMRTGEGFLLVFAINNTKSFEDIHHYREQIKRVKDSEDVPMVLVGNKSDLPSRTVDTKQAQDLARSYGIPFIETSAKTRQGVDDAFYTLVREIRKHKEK
pIC50: −log10 of the molar value.
Measured Attribute: pIC50

Compound	Measured Attribute	Quantitative Result
CO[C@@H]1C[C@@H]([C@H](C)Oc2nc(-c3onc4c3CCC[C@@]43CCCc4sc(N)c(C#N)c43)nc3c2n(C)c(=O)n3[C@@H]2CCCOC2)N(C)C1	pIC50	8.70
CCn1c(=O)n([C@@H]2CCOC2)c2nc(-c3onc4c3CCC[C@@]43CCCc4sc(N)c(C#N)c43)nc(O[C@@H](C)[C@@H]3CCCN3C)c21	pIC50	9.00
C[C@H](Oc1nc(-c2noc3c2CCC[C@@]32CCCc3sc(N)c(C#N)c32)nc2c1CCC21CCOC1)[C@@H]1CCCN1C (stereo partly drawn)	pIC50	8.52

====

Measured solubility at 24 h by item
experiment: Solubility measurement (DMSO solution precipitation method); type: physicochemical; details: aqueous buffer, kinetic from dmso stock, McIlvaine buffer pH 6.8, 24 h, read-out: solubility pH 6.8
Measured Attribute: solubility at 24 h (µg/mL)

Smiles Input	Modifier Sign	Quantitative Result
C[C@H](Oc1nc(-c2noc3c2CCC[C@@]32CCCc3sc(N)c(C#N)c32)nc2c1cnn2[C@@H]1CCOC1)[C@@H]1CCCN1C	=	104
CO[C@H]1CCN(C)[C@@H]1[C@H](C)Oc1nc(-c2noc3c2CCC[C@@]32CCCc3sc(N)c(C#N)c32)nc2c1CN(C1COC1)C[C@]21CCOC1	=	52
CO[C@H]1CCN(C)[C@@H]1[C@H](C)Oc1nc(-c2noc3c2CCC[C@@]32CCCc3sc(N)c(C#N)c32)nc2c1n(C)c(=O)n2[C@@H]1CCCOC1	=	11
C[C@H](Oc1nc(-c2onc3c2CCC[C@@]32CCCc3sc(N)c(C#N)c32)nc2c1n(C)c(=O)n2[C@@H]1CCOC1)[C@@H]1C[C@@H](F)CN1C	=	12
Cc1nn([C@@H]2CCOC2)c2nc(-c3onc4c3CCC[C@@]43CCCc4sc(N)c(C#N)c43)nc(O[C@@H](C)[C@@H]3CCCN3C)c12	=	112
C[C@H](Oc1nc(-c2onc3c2CCC[C@@]32CCCc3sc(N)c(C#N)c32)nc2c1n(C)c(=O)n2[C@@H]1CCOC1)C12CCCN1CCC2	>	154
CO[C@H]1CCN(C)[C@@H]1[C@H](C)Oc1nc(-c2onc3c2CCC[C@@]32CCCc3sc(N)c(C#N)c32)nc2c1n(C)c(=O)n2[C@H]1CO[C@@H](C)C1	=	53
CCn1c(=O)n([C@@H]2CCOC2)c2nc(-c3onc4c3CCC[C@@]43CCCc4sc(N)c(C#N)c43)nc(O[C@@H](C)[C@@H]3CCCN3C)c21	>	144
C[C@H](Oc1nc(-c2noc3c2CCC[C@@]32CCCc3sc(N)c(C#N)c32)nc2c1CN(c1ncccn1)[C@]21CCOC1)[C@@H]1CCCN1C	=	24
Cc1cn([C@@H]2CCOC2)c2nc(-c3onc4c3CCC[C@@]43CCCc4sc(N)c(C#N)c43)nc(O[C@@H](C)[C@@H]3CCCN3C)c12	=	32
CO[C@@H]1C[C@@H]([C@H](C)Oc2nc(-c3onc4c3CCC[C@@]43CCCc4sc(N)c(C#N)c43)nc3c2n(C)c(=O)n3[C@H]2CO[C@@H](C)C2)N(C)C1	=	56
CO[C@@H]1C[C@@H]([C@H](C)Oc2nc(-c3noc4c3CCC[C@@]43CCCc4sc(N)c(C#N)c43)nc3c2CN(C2COC2)C[C@]32CCOC2)N(C)C1	=	114
